This collection of values is drawn from the MegaScale stability set (Tsuboyama et al. 2023).

B1: 2K2A (parent)
chain: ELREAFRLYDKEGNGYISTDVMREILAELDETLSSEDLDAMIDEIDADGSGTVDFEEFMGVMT

variants of: B1; assay: folding stability dG (cDNA display proteolysis); higher = more stable; conditions: PBS, room temperature
The following variants are shown together with reported folding stability dG values.
Numbers only here, please. The scale is kcal/mol.

Field: example entries. Status: answers known.
E24S	2.3
G51Y	0.517
D20M	2.25

Name the reported folding stability dG value associated with the variant `Y16L`
0.96

Name the reported folding stability dG value associated with the variant `M22L`
1.97

Name the reported folding stability dG value associated with the variant `E12R`
0.846

Name the reported folding stability dG value associated with the variant `T52H`
1.69

Name the reported folding stability dG value associated with the variant `V61D`
-0.74

Name the reported folding stability dG value associated with the variant `L38A`
0.262

Name the reported folding stability dG value associated with the variant `D46T`
0.826

Name the reported folding stability dG value associated with the variant `D10S`
0.55

Name the reported folding stability dG value associated with the variant `E36I`
1.53
